Biological target: C-C chemokine receptor type 1 (Homo sapiens)
Sequence (P32246 whole entry): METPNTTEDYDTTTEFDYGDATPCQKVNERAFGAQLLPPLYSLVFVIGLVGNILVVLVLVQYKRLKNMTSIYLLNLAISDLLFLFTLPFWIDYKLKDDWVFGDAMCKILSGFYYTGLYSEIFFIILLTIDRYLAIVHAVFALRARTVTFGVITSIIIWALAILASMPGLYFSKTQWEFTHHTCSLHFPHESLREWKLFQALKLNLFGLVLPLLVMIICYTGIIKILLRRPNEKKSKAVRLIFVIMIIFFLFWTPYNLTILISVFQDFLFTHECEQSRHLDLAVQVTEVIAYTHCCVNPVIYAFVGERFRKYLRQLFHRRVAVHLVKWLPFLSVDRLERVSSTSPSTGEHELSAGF
Assay: Displacement of [125I]hMIP-1alpha from CCR1 in human PBMC

molecule: CC(C)[C@@H](NC(=O)NCC(C)(C)O)C(=O)N1CC[C@](O)(c2ccc(Cl)cc2)C(C)(C)C1 [BMS-817399]
display_unit: nM
IC50: 4.2

----------
Test: Metabolic stability in rat liver microsomes assessed as compound remaining at 3 uM after 60 mins by UV-LC/MS analysis
Format: ADME
Conditions: read-out: Stability
Examples of compounds with documented remaining at 1 h, 3 µM follow.

input_smiles: CC(C)[C@@H](NC(=O)N[C@H]1CC[C@H](O)C1)C(=O)N1CC[C@](O)(c2ccc(Cl)cc2)C(C)(C)C1
remaining at 1 h, 3 µM: 96%
//
input_smiles: CC[C@H](C)NC(=O)N[C@@H](C(=O)N1CC[C@](O)(c2ccc(Cl)cc2)C(C)(C)C1)C(C)C
remaining at 1 h, 3 µM: 89%
//
input_smiles: CC(C)[C@@H](NC(=O)N1CCCC1)C(=O)N1CC[C@](O)(c2ccc(Cl)cc2)C(C)(C)C1
remaining at 1 h, 3 µM: 11%
//
input_smiles: CC(C)[C@@H](NC(=O)N[C@@H]1CC[C@@H](O)C1)C(=O)N1CC[C@](O)(c2ccc(Cl)cc2)C(C)(C)C1
remaining at 1 h, 3 µM: 84%
//
input_smiles: CC(C)[C@@H](NC(=O)C[C@@H](C)O)C(=O)N1CC[C@](O)(c2ccc(Cl)cc2)C(C)(C)C1
remaining at 1 h, 3 µM: 79%
//
input_smiles: CC(C)[C@@H](NC(=O)N[C@@H]1CC[C@H](O)C1)C(=O)N1CC[C@](O)(c2ccc(Cl)cc2)C(C)(C)C1
remaining at 1 h, 3 µM: 75%
//
input_smiles: CC(C)[C@@H](NC(=O)N[C@H]1CC[C@@H](O)C1)C(=O)N1CC[C@](O)(c2ccc(Cl)cc2)C(C)(C)C1
remaining at 1 h, 3 µM: 83%
//
input_smiles: CC[C@@H](C)NC(=O)N[C@@H](C(=O)N1CC[C@](O)(c2ccc(Cl)cc2)C(C)(C)C1)C(C)C
remaining at 1 h, 3 µM: 85%
//
input_smiles: CC(C)[C@@H](NC(=O)NCc1ccccc1)C(=O)N1CC[C@](O)(c2ccc(Cl)cc2)C(C)(C)C1
remaining at 1 h, 3 µM: 1%
//
input_smiles: CC(C)[C@@H](NC(=O)NC1CCCC1)C(=O)N1CC[C@](O)(c2ccc(Cl)cc2)C(C)(C)C1
remaining at 1 h, 3 µM: 57%
//
input_smiles: CC(C)[C@@H](NC(=O)CC(C)(C)O)C(=O)N1CC[C@](O)(c2ccc(Cl)cc2)C(C)(C)C1
remaining at 1 h, 3 µM: 84%
